As shown below, each of these molecules has a reported TGI value.
Tested on: HOP-62 NSCLC
Experiment: NCI tumour cell line growth inhibition, 48 h
outcome_measure: TGI

molecule: CC(=O)Nc1ccc(/C=C/C(=O)c2sc(-n3nc(-c4ccccc4)cc3-c3ccccc3)nc2C)cc1
observed_result: > 100 µM
//
molecule: CC(=O)OC1=C(c2ccccc2)S(=O)(=O)c2ccccc21
observed_result: > 100 µM
//
molecule: C=C(C)[C@@H]1CC[C@]2(C(=O)OC)CC[C@]3(C)[C@H](CC[C@@H]4[C@@]5(C)CC/C(=N\OCCC(=NCCC#N)NOCCC#N)C(C)(C)[C@@H]5CC[C@]43C)[C@@H]12
observed_result: > 50 µM
//
molecule: CN(C)CCC(C#N)(c1ccccc1)c1ccccc1
observed_result: > 100 µM
//
molecule: Nc1ncnc2c1ncn2C1SC(CO)C(O)C1O (stereo not given)
observed_result: 91.2 µM
//
molecule: Cc1c(Cl)ccc2[s+]snc12
observed_result: > 100 µM
//
molecule: CC(C)c1cc(C(C)C)c(S(=O)(=O)N/N=C2\CC3CCC2(C)C3(C)C)c(C(C)C)c1 (stereo not given)
observed_result: > 100 µM
//
molecule: O=C(c1ccccc1)N1CCc2c([nH]c3ccccc23)C1
observed_result: > 100 µM
//
molecule: NC(Cc1c2ccccc2cc2ccccc12)C(=O)O (stereo not given)
observed_result: > 100 µM
//
molecule: C/C(=C/C(=O)N(C)c1ccccc1Cl)O[Si](C(C)C)(C(C)C)C(C)C
observed_result: 74.4 µM

Source of measurements: PubChem BioAssay (NCI)
